All values here come from patent US20230235012A1.

target: T1, human CD28, full-length, expressed on transfected Expi293 cells (human, UniProt P10747 19-220); assay: flow cytometry, 100 nM, Expi293 cells with human CD28
T1 construct: whole, on cells
OBSERVATION_TYPE: MFI ratio to WT (ΔWT) (fold)

{"BINDER": "variant ICOSL IgV-Fc fusion N52S/N57Y/Q100M (Fc fusion) DTQEKEVRAMVGSDVELSCACPEGSRFDLNDVYVYWQTSESKTVVTYHIPQSSSLEYVDSRYRNRALMSPAGMLRGDFSLRLFNVTPQDEQKFHCLVLSMSLGFQEVLSVEVTLHVAANFSVGSGGGGSEPKSSDKTHTCPPCPAPEAEGAPSVFLFPPKPKDTLMISRTPEVTCVVVDVSHEDPEVKFNWYVDGVEVHNAKTKPREEQYNSTYRVVSVLTVLHQDWLNGKEYKCKVSNKALPAPIEKTISKAKGQPREPQVYTLPPSREEMTKNQVSLTCLVKGFYPSDIAVEWESNGQPENNYKTTPPVLDSDGSFFLYSKLTVDKSRWQQGNVFSCSVMHEALHNHYTQKSLSLSPG", "MEASURED_VALUE": 7}
